# tested target: hCGRP receptor (CALCRL:RAMP1) (Homo sapiens, UniProt O60894+Q16602)
# Construct: host or cells: GeneBLAzer CALCRL:RAMP1-CRE-bla Freestyle 293F
# Sequence (Q16602 23-461): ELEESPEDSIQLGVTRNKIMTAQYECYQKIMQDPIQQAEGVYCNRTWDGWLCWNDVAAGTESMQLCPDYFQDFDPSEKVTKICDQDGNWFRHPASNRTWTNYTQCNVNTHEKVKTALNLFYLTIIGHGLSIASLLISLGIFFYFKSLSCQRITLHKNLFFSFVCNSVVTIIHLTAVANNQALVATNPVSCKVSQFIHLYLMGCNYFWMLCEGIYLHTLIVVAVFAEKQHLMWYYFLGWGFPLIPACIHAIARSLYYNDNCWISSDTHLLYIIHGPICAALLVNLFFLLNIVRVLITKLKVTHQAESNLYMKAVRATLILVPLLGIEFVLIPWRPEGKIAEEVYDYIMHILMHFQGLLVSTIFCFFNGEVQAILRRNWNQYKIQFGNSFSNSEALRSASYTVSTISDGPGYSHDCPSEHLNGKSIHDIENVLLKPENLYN
# Sequence (O60894 27-148): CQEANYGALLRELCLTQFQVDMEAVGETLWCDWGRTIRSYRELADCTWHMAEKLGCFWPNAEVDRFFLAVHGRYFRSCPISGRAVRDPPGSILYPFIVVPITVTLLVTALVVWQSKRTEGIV
# method: CGRP receptor antagonist activity measured by cAMP assay (HTRF)
# Assay type: cell-based
# measurement conditions: GeneBLAzer CALCRL:RAMP1-CRE-bla Freestyle 293F cells; agonist human α-CGRP; 30 minutes; read-out: hCGRP-R IC50 Ave
# Excerpt: Example 6: CGRP Receptor Antagonist Activity Measured by cAMP Assay CGRP receptor agonists increase intracellular cyclic adenosine mono-phosphate (cAMP). CGRP receptor antagonists can reduce the agonist effect. […]
Numbered stars: 1 amine (or outer) side, 2 acyl side, 3 side chain; on linkers, the order of the positions; unused ones are H or OH. Bridge positions count the residues as written; N and C are the ends. Square brackets hold non-standard residues; d marks the D form. Peptide text beside a SMILES is read from it. * marks the point of attachment. Phe(2-CONH2) = NC(=O)c1ccccc1C[C@H](N)C(=O)O; X5 = O=C([C@H](Cc1ccc(CO)cc1)N[*:1])[*:2]; Lys(iPr) = CC(C)NCCCC[C@H](N)C(=O)O; Orn(iPr) = CC(C)NCCC[C@H](N)C(=O)O; Oxazole2carbonyl = O=C(c1ncco1)*; 3Pal = N[C@@H](Cc1cccnc1)C(=O)O; ΔPro = O=C(O)[C@@H]1C=CCN1; X9 = Nc1cccnc1C(=O)*
Known pIC50 of a selection of molecules
// scale note: pIC50 = -log10(conc_M); give the bare number

Which pIC50 value is on record for CC(C)[C@@H]1NC(=O)[C@H](CC(=O)O)NC(=O)[C@H](CCCNC(=N)N)NC(=O)[C@@H](NC(=O)[C@H](Cc2ccc(O)cc2)NC(=O)[C@H](NC(=O)c2ncccc2N)C(C)C)CSSC[C@@H](C(=O)N[C@@H](Cc2cccnc2)C(N)=O)NC(=O)[C@H](Cc2ccccc2)NC(=O)[C@@H]2CCCN2C(=O)CNC1=O [Compound 36] (X9-[dV]YCRDVGPFC[3Pal]-NH2; disulfide 3-10) ?
9.77

And CC(C)NCCC[C@@H]1NC(=O)[C@@H](NC(=O)[C@H](Cc2ccc(O)cc2)NC(=O)[C@H](NC(=O)c2ncco2)C(C)C)CSSC[C@@H](C(=O)N[C@@H](Cc2cccnc2)C(N)=O)NC(=O)[C@H](Cc2ccc(CO)cc2)NC(=O)[C@@H]2C=CCN2C(=O)CNC(=O)[C@H](C(C)C)NC(=O)[C@H](CC(=O)O)NC1=O [Compound 70] (Oxazole2carbonyl-[dV]YC[Orn(iPr)]DVG[ΔPro][X5]C[3Pal]-NH2; disulfide 3-10) ?
9.82

And CC(C)NCCCC[C@@H]1NC(=O)[C@@H](NC(=O)[C@H](Cc2ccccc2C(N)=O)NC(=O)[C@H](NC(=O)c2ncco2)C(C)C)CSSC[C@@H](C(=O)N[C@@H](Cc2cccnc2)C(N)=O)NC(=O)[C@H](Cc2cccnc2)NC(=O)[C@@H]2CCCN2C(=O)CNC(=O)[C@H](C(C)C)NC(=O)[C@H](CC(=O)O)NC1=O [Compound 41] (Oxazole2carbonyl-[dV][Phe(2-CONH2)]C[Lys(iPr)]DVGP[3Pal]C[3Pal]-NH2; disulfide 3-10) ?
9.89
